ASSAY TARGET: PI3Kγ (Homo sapiens)
METHOD SUMMARY: PI3K inhibition assay, Protocol B (33P-ATP, glass fiber filter plate)
Assay type: biochemical
RUN CONDITIONS: Protocol B; 100 μM ATP, 46 μM PI(4,5)P2 diC16, 16.6 nM PI3Kγ; average if more than one result; read-out: PI3Kγ enzyme inhibition Ki
Listed here: items and their measured Ki.

| MOLECULE | Ki |
| --- | --- |
| CC(=O)Nc1nc(C)c(-c2ccc(C(=O)NC3(CO)CCCC3)o2)s1 | 100 to 1000 nM |
| CC(=O)Nc1nc(C)c(-c2ccc(C(=O)N3CCSCC3)o2)s1 | 100 to 1000 nM |
| CC(=O)Nc1nc(C)c(-c2ccc(S(=O)(=O)NCc3cccc(I)c3)o2)s1 | < 100 nM |
| CC(=O)Nc1nc(C)c(-c2ccc(C(=O)N3CCCC(O)C3)o2)s1 (stereo not drawn) | 100 to 1000 nM |
| CC(=O)Nc1nc(C)c(-c2ccc(S(=O)(=O)N3CC(C)OC(C)C3)o2)s1 (stereo not drawn) | < 100 nM |

I would be grateful if you could share the reported Ki for CC(=O)Nc1nc(C)c(-c2ccc(S(=O)(=O)NC3CC3)o2)s1 . < 100 nM

I would be grateful if you could share the reported Ki for CC(=O)Nc1nc(C)c(-c2ccc(C(=O)N3CCN(C)CC3)o2)s1 . 1000 to 5000 nM

I would be grateful if you could share the reported Ki for CC(=O)Nc1nc(C)c(-c2ccc(S(=O)(=O)NCc3ccccc3)o2)s1 . < 100 nM

I would be grateful if you could share the reported Ki for CC(=O)Nc1nc(C)c(-c2ccc(S(=O)(=O)NCc3cc(Cl)cc(Cl)c3)o2)s1 . 100 to 1000 nM

----------
ASSAY TARGET: PI3Kγ (Homo sapiens, UniProt P48736)
Sequence (P48736 whole entry, species assumed): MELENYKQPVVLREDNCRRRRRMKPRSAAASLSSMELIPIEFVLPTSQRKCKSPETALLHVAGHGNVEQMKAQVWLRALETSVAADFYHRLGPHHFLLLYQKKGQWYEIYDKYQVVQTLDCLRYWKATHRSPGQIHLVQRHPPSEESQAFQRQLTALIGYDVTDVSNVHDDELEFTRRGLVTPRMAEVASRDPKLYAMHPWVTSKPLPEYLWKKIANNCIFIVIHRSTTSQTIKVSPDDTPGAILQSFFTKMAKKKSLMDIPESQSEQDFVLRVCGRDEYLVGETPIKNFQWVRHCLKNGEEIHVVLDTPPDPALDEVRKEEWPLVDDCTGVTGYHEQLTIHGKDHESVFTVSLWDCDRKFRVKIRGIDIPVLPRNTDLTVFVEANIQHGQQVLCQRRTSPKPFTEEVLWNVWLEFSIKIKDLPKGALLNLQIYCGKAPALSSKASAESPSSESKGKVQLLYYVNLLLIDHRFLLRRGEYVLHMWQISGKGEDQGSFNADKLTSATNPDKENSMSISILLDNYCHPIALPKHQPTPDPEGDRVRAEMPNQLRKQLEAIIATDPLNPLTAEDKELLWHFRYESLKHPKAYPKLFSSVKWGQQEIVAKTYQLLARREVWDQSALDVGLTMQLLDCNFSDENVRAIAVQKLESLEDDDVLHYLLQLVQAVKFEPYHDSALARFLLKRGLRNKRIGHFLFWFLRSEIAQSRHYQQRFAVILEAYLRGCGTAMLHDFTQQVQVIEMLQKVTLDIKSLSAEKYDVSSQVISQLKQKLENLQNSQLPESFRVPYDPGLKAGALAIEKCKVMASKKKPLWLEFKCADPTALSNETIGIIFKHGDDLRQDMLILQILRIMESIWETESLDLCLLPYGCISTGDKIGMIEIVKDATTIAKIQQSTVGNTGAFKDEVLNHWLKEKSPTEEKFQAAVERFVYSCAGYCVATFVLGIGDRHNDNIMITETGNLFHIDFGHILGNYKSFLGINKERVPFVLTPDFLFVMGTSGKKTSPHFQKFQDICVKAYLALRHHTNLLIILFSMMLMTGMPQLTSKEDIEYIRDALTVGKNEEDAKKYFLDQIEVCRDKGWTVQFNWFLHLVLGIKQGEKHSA
METHOD SUMMARY: PI3K inhibition assay, Protocol B (33P-ATP, glass fiber filter plate)
Format: biochemical
RUN CONDITIONS: Protocol B; 100 μM ATP, 46 μM PI(4,5)P2 diC16, 16.6 nM PI3Kγ; average if more than one result; read-out: PI3Kγ enzyme inhibition Ki
ENDPOINT: Ki

Worked cases, answers included:
| MOLECULE | ENDPOINT | RESULT |
| --- | --- | --- |
| CC(=O)Nc1nc(C)c(-c2ccc(S(=O)(=O)N[C@@H](C)c3ccccc3)o2)s1 [Compound 49] | Ki | < 100 nM |
| CC(=O)Nc1nc(C)c(-c2ccc(S(=O)(=O)N3CCCCC3)o2)s1 [Compound 30] | Ki | < 100 nM |
| COCCNS(=O)(=O)c1ccc(-c2sc(NC(C)=O)nc2C)o1 [Compound 23] | Ki | < 100 nM |
| CC(=O)Nc1nc(C)c(-c2ccc(C(=O)N[C@@H](CO)c3ccccc3)o2)s1 [Compound 10] | Ki | 100 to 1000 nM |
| CC(=O)Nc1nc(C)c(-c2ccc(S(=O)(=O)NCCC#N)o2)s1 [Compound 26] | Ki | < 100 nM |
| CC(=O)Nc1nc(C)c(-c2ccc(S(=O)(=O)Nc3ccccc3C)o2)s1 [Compound 65] | Ki | < 100 nM |
| CC(=O)Nc1nc(C)c(-c2ccc(S(=O)(=O)NCc3cccc(OC(F)(F)F)c3)o2)s1 [Compound 43] | Ki | 100 to 1000 nM |
| CC(=O)Nc1nc(C)c(-c2ccc(S(=O)(=O)N[C@H](CCO)c3ccccc3)o2)s1 [Compound 52] | Ki | < 100 nM |
| COC(=O)c1nc(NC(C)=O)sc1-c1ccc(S(=O)(=O)N(C)Cc2ccccc2)o1 [Compound 71] | Ki | 1000 to 5000 nM |
| CC(=O)Nc1nc(C)c(-c2ccc(C(=O)N3CCCC(c4ccc(F)cc4)C3)o2)s1 (centres unmarked) [Compound 13] | Ki | 100 to 1000 nM |

I would be grateful if you could share the reported Ki for CC(=O)Nc1nc(C)c(-c2ccc(S(=O)(=O)NCc3cccc(NS(C)(=O)=O)c3)o2)s1 [Compound 47] . < 100 nM

I would be grateful if you could share the reported Ki for CC(=O)Nc1nc(C)c(-c2ccc(S(N)(=O)=O)o2)s1 [Compound 19] . < 100 nM

I would be grateful if you could share the reported Ki for CC(=O)Nc1nc(C)c(-c2ccc(C(=O)N3CCCC3c3cccc(Br)c3)o2)s1 (centres unmarked) [Compound 4] . 1000 to 5000 nM

I would be grateful if you could share the reported Ki for CC(=O)Nc1nc(C)c(-c2ccc(C(=O)N3CCC(N4CCCC4)CC3)o2)s1 [Compound 15] . 1000 to 5000 nM

I would be grateful if you could share the reported Ki for CC(=O)Nc1nc(C)c(-c2ccc(S(=O)(=O)NCc3cccc([N+](=O)[O-])c3)o2)s1 [Compound 40] . < 100 nM

I would be grateful if you could share the reported Ki for CC(=O)Nc1nc(C)c(-c2ccc(S(=O)(=O)NCCO)o2)s1 [Compound 22] . < 100 nM

I would be grateful if you could share the reported Ki for CC(=O)Nc1nc(C)c(-c2ccc(C(=O)N3CCN(Cc4ccccc4)CC3)o2)s1 [Compound 8] . 100 to 1000 nM

Values were extracted from patent US8268818B2.
